Assay: basal 3T3-L1 adipocyte mitochondrial potential changes, profiling panel, cell-based, JC-1 fluorescence, 3T3-L1 adipocytes, 24 h, 100 nL compound (AID 1168); also: test concentration not given here
Conditions: JC-1 mitochondrial fluorescence, higher = more signal, called active from +8 up or from −8 down
Tag: fulfilled if measured z-score is not below 1, not fulfilled if it is.

COc1cc2c(cc1OC)CN(C(=O)[C@@H]1[C@H]3C(=O)O[C@H](c4ccccc4)[C@H](c4ccccc4)N3[C@H](c3ccccc3OCCO)[C@@]13C(=O)Nc1ccccc13)CC2 | fulfilled

Problem: Check the entry `COc1ccc([Si](C)(C)[C@@H]2[C@@H](CCO)O[C@]3(C(=O)N(Cc4ccccc4)c4ccccc43)[C@H]2C)cc1` : does z-score equal or exceed 1?
Solution: not fulfilled

Problem: Assess whether reported z-score for `COc1ccc(C(=O)Nc2ccc(CN3C(=O)[C@]4(O[C@H](CCn5cc(CCO)nn5)[C@@H]([Si](C)(C)c5ccc(OC)cc5)[C@@H]4C)c4ccccc43)cc2)cc1` sits at 1 or higher.
Solution: fulfilled

* * *

Assay: PSAC antagonists in infected red cells, primary screen, cell-based, P. falciparum Indochina, OD700, 2 h (AID 1155);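 also: lysis reports solute entry through the parasite surface anion channel PSAC; channel blockers reduce lysis of infected cells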
Details: P. falciparum Indochina infected erythrocytes, osmotic lysis OD700; higher = more signal, called active from +8 up or from −8 down
PARAMETER: z-score
Numbers only.

O=C1O[C@H](c2ccccc2)[C@H](c2ccccc2)N2[C@H]1[C@@H](C(=O)Nc1nc3ccccc3s1)[C@]1(C(=O)Nc3ccc(C#CC4=CCCCC4)cc31)[C@H]2c1ccccc1OCCO | 2.21
O=C(CS)NCCCCCNC(=O)[C@H]1C[C@H]2C(=O)N3CCC[C@H]3C(=O)N2[C@H]1c1ccc(O)cc1 | -0.856
O=C1OCCC/C=C\[C@H]2OC34C=CCN(CCN5CCOCC5)C(=O)[C@H]3N(CCCCCO)C(=O)[C@@H]4C12 (some centres undefined) | -0.314

Problem: z-score lookup needed for `COCC(=C=CC[C@H](O)c1ccc(OCCO)cc1)C[C@H](O)c1ccccn1` , thanks.
Solution: 0.989

* * *

Target: Fibroblast growth factor 2 (Homo sapiens)
Assay: FGF2 binders on small-molecule microarrays, primary screen, biochemical, small-molecule microarray, 635/667 nm fluorescence (AID 1133)
Details: small-molecule microarray binding, FGF2, fluorescence 635/667; higher = more signal
param class (str): category from composite z-score; see ranges bottom range: < 0.005; center range: ≥ 0.005 and < 0.4; top range: ≥ 0.4

Example cases with answers are listed next.
COC(=O)[C@@]1(Cc2ccccc2CN=[N+]=[N-])N=C(c2ccc(OCCCO)cc2)O[C@H]1c1ccccc1N=[N+]=[N-] | center range
C=CC(=O)O[C@@H](Cc1ccccc1)[C@H]1C2C=CCCC=C2CN1Cc1cccc(Cl)c1 (some centres undefined) | bottom range
NC(=O)NCC#Cc1ccc2c(c1)[C@]1(C(=O)N2)[C@H](C(=O)N2CCCCCCC2)[C@H]2C(=O)O[C@H](c3ccccc3)[C@H](c3ccccc3)N2[C@@H]1c1ccccc1OCCO | center range

Problem: # bin lookup: classify `COCCOC(=O)N1C(=O)[C@@]2(c3cc(C#CCNC(N)=O)ccc31)[C@H](c1ccc(OCCO)cc1)N1[C@H](c3ccccc3)[C@H](c3ccccc3)OC(=O)[C@H]1[C@@H]2C(=O)Nc1nc2ccccc2s1` by its composite z-score
Solution: top range

Problem: Which bin should I file `Cc1ccc([C@@H]2CC=C(C(=O)O)[C@H](c3ccccc3)N2S(=O)(=O)c2ccc(C)cc2)cc1` under?
Solution: bottom range

Problem: Bin? CCC1=C2CN(Cc3ccccc3Br)[C@@H]([C@@H](O)Cc3ccccc3)C2C=CCC1 (some centres undefined)
Solution: center range

Problem: Please report the category associated with C=CCC(OC(C)=O)[C@@H]1[C@@H](N(Cc2ccc(-c3cccc(C(F)(F)F)c3)o2)C(=O)Cc2ccc(F)cc2)c2cc(OCCCO)ccc2N1C(=O)c1ccc(-c2ccccc2)cc1 (some centres undefined) , nothing else.
Solution: bottom range

Problem: Which composite z-score category applies to `CC(C)(C)OC(=O)CC[C@]1(C(=O)N2CCCCC2)N=C(c2ccc(OCCCO)cc2)O[C@H]1c1ccccc1` here?
Solution: top range

Problem: Would you mind sorting `CO[C@H]1COC(=O)[C@H](C)NC(=O)CC=C[C@@H](C)[C@H](NS(=O)(=O)c2ccc(C)cc2)COC(=O)[C@@H](OCc2ccccc2)C=C[C@@H]1C` into the appropriate category?
Solution: top range

Problem: Using the reported composite z-score, which band applies to `NC(=O)NCC#Cc1ccc2c(c1)[C@]1(C(=O)N2)[C@H](c2ccccc2OCCO)N2[C@H](c3ccccc3)[C@H](c3ccccc3)OC(=O)[C@H]2[C@@H]1C(=O)N1CCN(c2ncccn2)CC1` ?
Solution: top range

Problem: Bin? `COCC(=C=CC[C@H](O)c1ccc(OCCO)cc1)C[C@H](O)c1ccccn1`
Solution: center range

Problem: Band for `O=C1c2ccccc2[C@](Cc2ccccc2I)(C(=O)NCC(F)(F)F)[C@H](c2ccc(CO)cc2)N1Cc1ccccc1C(F)(F)F` ?
Solution: center range

Problem: Entry `Cc1ccc(N2C(=O)c3ccccc3[C@@H](C(=O)NCC(F)(F)F)[C@@H]2c2ccc(CO)cc2)nc1` belongs to which category?
Solution: bottom range

* * *

Tested on: Fibrinogen (Alexa647-labelled)
Test: fibrinogen binders on compound microarrays, profiling panel, artefact control for SMM control-protein annotation, biochemical, small-molecule microarray, 635/667 nm fluorescence (AID 1131);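 also: z-score merges 667 nm fluorescence with per-spot signal-to-noise over triplicate slides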
Settings: fibrinogen-A647 binding fluorescence, higher = more signal
PARAMETER: composite z-score
Answers are plain numbers.

Before answering, review these 5 worked examples.
O=C(CS)NCCCCCNC(=O)[C@H]1C[C@H]2C(=O)N[C@@H](Cc3ccccc3)C(=O)N2[C@H]1c1ccc(O)cc1 | 0.948
COCC(=C=CC[C@H](O)c1ccc(OCCO)cc1)C[C@H](O)c1ccccn1 | -0.263
COCCOC(=O)N1C(=O)[C@@]2(c3ccccc31)[C@H](C(=O)N1CCc3cc(OC)c(OC)cc3C1)[C@H]1C(=O)O[C@H](c3ccccc3)[C@H](c3ccccc3)N1[C@@H]2c1ccccc1OCCO | 0.938
CO[C@@H]1COC(=O)[C@H](C)NC(=O)CC=C[C@@H](C)[C@H](NS(=O)(=O)c2ccc(C)cc2)COC(=O)CC=C[C@@H]1C | -0.412
CO[C@H]1COC(=O)[C@@H](C)COC(=O)[C@H](Cc2ccccc2)NC(=O)CC=C[C@H]1C | 0.177

Provide reported composite z-score for each item, in the same order as listed.
1. CN(C)C(=O)[C@@]1(Cc2ccccc2N=[N+]=[N-])N=C(c2ccc(OCCCO)cc2)O[C@H]1c1ccccc1CN=[N+]=[N-]
2. O=C(CS)NCCCCCCNC(=O)[C@@H]1C[C@@H]2C(=O)N[C@@H](Cc3ccccc3)C(=O)N2[C@@H]1c1ccc(O)cc1
3. COC(=O)[C@@]1(Cc2ccc(OC)cc2)[C@H]2c3cc(C(=O)N(C)C)n(Cc4ccc(C)c(F)c4F)c3C[C@H]2CN1C(=O)c1ccccc1
4. COc1cc([C@@H]2N[C@H](C(=O)O)Cc3c2[nH]c2ccccc32)cc(OC)c1OC
5. O=[N+]([O-])c1ccc(C[n+]2ccc3ccc(O)cc3c2)o1
6. CO[C@H]1COC(=O)[C@@H](Cc2ccccc2)NC(=O)[C@@H](C)COC(=O)CC=C[C@@H]1C
7. C=CCC1=C[C@H]2[C@H]([C@@H]3C=C[C@]2(CC=C)C(=O)[C@]32CO2)[C@@]2(CO2)C1=O

Solution:
1: 0.831; 2: 0.255; 3: 0.746; 4: 0.514; 5: 0.596; 6: -0.277; 7: -0.571

* * *

Biological target: Calmodulin-1 (Homo sapiens) (UniProt P0DP23)
Assay: CALM1 binders on microarrays, EGTA buffer, profiling panel, biochemical, small-molecule microarray, Cy5-labelled CALM1 (AID 1111);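 also: labelled calmodulin applied in Tris saline Tween buffer holding calcium plus EGTA and DTT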
Conditions: Cy5-CALM1 binding fluorescence, higher = more signal
PARAMETER: composite z-score
Answers are plain numbers.

// solved cases for composite z-score follow
C[C@@H]1NC(=O)[C@H](Cc2ccccc2)NC(=O)[C@@]23C(=O)N[C@@H](Cc4ccccc4)C2[C@H](C)[C@@]2(C)O[C@H]2C3/C=C/C/C=C\CNC1=O (some centres undefined) | -0.472
O=C/C=C/c1ccc(/C=C/c2ccccc2)cc1 | -0.858
C[C@@H]1NC(=O)CC=C[C@@H](C)[C@@H]2C=C[C@H](O)[C@@H](COC(=O)[C@H](C)NC(=O)CC=C[C@@H](C)[C@@H]3C=C[C@H](O)[C@@H](COC1=O)O3)O2 | -0.417

Problem: Name the recorded composite z-score for `CSCC[C@@H]1NC(=O)CC=C[C@@H](C)COC(=O)[C@H](CCSC)NC(=O)CC=C[C@@H](C)COC1=O` .
Solution: -1.21

The measured values listed here are drawn from PubChem BioAssay.
